Overview of recorded pIC50 for various compounds
Test system: phosphorylation of pRb at the Ser780 site in JeKo-1 mantle cell lymphoma cells
Assay: CDK4 cellular assay: ELISA of pRb phosphorylation at Ser780 in JeKo-1 cells
Type: cell-based
Conditions: JeKo-1 cells, p-pRb Ser780 ELISA, non-normalized; read-out: Cellular ppRb inhibition IC50
Protocol: Cell-based assay measuring phosphorylation levels of pRb at the Ser780 site using an enzyme-linked immunosorbent assay (ELISA) method (Table 6). […] Plates were incubated overnight at 4° C. with rocking. […] After incubation, 50 μL 2 M sulfuric acid were added to plates to top the reaction, and absorbance was determined on a SpectraMax (Molecular Devices, Sunnydale, Calif.) within 15 minutes at 450 nm. […]
Worth noting: pIC50 values are minus log10 of concentrations stated in mol/L.

The cases that follow already have their pIC50 on record.
Indicate its recorded pIC50; the compound in question is CN(C)C(=O)c1cc2cnc(Nc3ccc(N4CC5CCC(CC4=O)N5)cn3)nc2n1C1CCCC1 (stereo not shown)
8.05

Indicate its recorded pIC50; the compound in question is `CN(C)C(=O)c1cc2cnc(Nc3ccc(N4C[C@@H]5CC[C@H](CC4=O)N5)cn3)nc2n1C1CCCC1`
6.80

Others:
Indicate its recorded pIC50; the compound in question is `CNC(=O)c1cc2cnc(Nc3ccc(C(=O)N4C[C@@H]5C[C@H]4CN5)cn3)nc2n1C1CCCC1`
6.58
